# MEASUREMENT_NOTES: NCI Yeast Anticancer Drug Screen. Data for the cln2 rad14 strain (AID 165);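 further: 0% = growth equal to vehicle treated cultures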
# MEASUREMENT_CONDITIONS: S. cerevisiae cln2 rad14 strain, at 50.0 µM, hits give high values
Compounds without any hit were thinned out: in the full panel of roughly 79,000, 15% have a hit. Where a SMILES comes first, the peptide text is derived from it. The star is where a group is joined. OtBu = CC(C)(C)O*
Recorded growth inhibition by entry

{"COMPOUND": "O=C1CSCc2sccc21", "growth inhibition (%)": -14.4}
{"COMPOUND": "COC(=O)CCNCCSC(=O)c1ccccc1", "growth inhibition (%)": 12.9}
{"COMPOUND": "CCOc1ccccc1/C=C1\\CCc2ccccc2C1=O", "growth inhibition (%)": 0.4}
{"COMPOUND": "CC(O)C12OC1CC1C3CC4OC45CC(O)CCC5(C)C3CCC12C (stereo unspecified)", "growth inhibition (%)": 31.1}
{"COMPOUND": "S=C1NCC(c2ccccc2)CN1", "growth inhibition (%)": 19.9}
{"COMPOUND": "COC(=O)C(Cc1c[nH]c2ccccc12)NP(=O)(O)OCC1OC(n2cc(F)c(=O)[nH]c2=O)CC1O (stereo unspecified)", "growth inhibition (%)": -9.2}
{"COMPOUND": "CC(=O)Nc1ccc(S(=O)(=O)N=S(C)C)cc1", "growth inhibition (%)": -21.6}
{"COMPOUND": "C[Si](C)(C)c1ccc(C(=O)O)cc1", "growth inhibition (%)": 3.2}
{"COMPOUND": "CCOC(=O)c1ccc(Cl)cc1", "growth inhibition (%)": -23.8}
{"COMPOUND": "Nc1ncc[nH]c1=O", "growth inhibition (%)": -4.1}
{"COMPOUND": "O=C(O)Cc1ccc([N+](=O)[O-])cc1", "growth inhibition (%)": 15.2}
{"COMPOUND": "CCOC(=O)CCC1(C(=O)OCC)CCCC1=O (stereo unspecified)", "growth inhibition (%)": -9.7}
{"COMPOUND": "CC(C)(C)CC(C)(C)c1cc2c(O)c(c1)Cc1cc(C(C)(C)CC(C)(C)C)cc(c1O)Cc1cc(C(C)(C)CC(C)(C)C)cc(c1O)Cc1cc(C(C)(C)CC(C)(C)C)cc(c1O)Cc1cc(C(C)(C)CC(C)(C)C)cc(c1O)Cc1cc(C(C)(C)CC(C)(C)C)cc(c1O)C2", "growth inhibition (%)": 18.9}
{"COMPOUND": "C(=C\\c1ccc2ccccc2c1)/c1ccc2ccccc2c1", "growth inhibition (%)": 63.5}
{"COMPOUND": "COc1ccc2c(c1OC)C(Cc1ccccc1)N1CCc3cc4c(cc3C1C2)OCO4 (stereo unspecified)", "growth inhibition (%)": 50.8}
{"COMPOUND": "C#CCOc1ccc(C(F)(F)F)cc1", "growth inhibition (%)": -17.4}
{"COMPOUND": "Cc1cc(OCCOC(=O)Nc2ccccc2C(F)(F)F)cc(C)c1Cl", "growth inhibition (%)": -44.4}
{"COMPOUND": "COc1cccc(C(c2cc3c(cc2O)OCO3)N2CCOCC2)c1O (stereo unspecified)", "growth inhibition (%)": 8.7}
{"COMPOUND": "C[N+](C)(C)C1(Cc2ccccc2)c2ccccc2-c2ccc(Cl)cc21 (stereo unspecified)", "growth inhibition (%)": -15.8}
{"COMPOUND": "Cc1ccc(S(=O)(=O)Oc2ccccc2C(=O)O)cc1", "growth inhibition (%)": -55.3}
{"COMPOUND": "O=C(O)/C=C/C(=O)Nc1cccc(C(F)(F)F)c1", "growth inhibition (%)": -6.85}
{"COMPOUND": "C(=C\\C(SCc1ccccc1)SCc1ccccc1)/c1ccccc1", "growth inhibition (%)": 3.55}
{"COMPOUND": "Nc1c(S(=O)(=O)O)cc(Nc2cccc(S(N)(=O)=O)c2)c2c1C(=O)c1ccccc1C2=O", "growth inhibition (%)": -7.65}
{"COMPOUND": "O=C1C(Cl)N(c2ccccc2[N+](=O)[O-])C1c1c[nH]c2ccccc12 (stereo unspecified)", "growth inhibition (%)": -19.9}
{"COMPOUND": "O=C1CSC(c2cccs2)N1CCN1C(=O)CSC1c1cccs1 (stereo unspecified)", "growth inhibition (%)": -6.75}
{"COMPOUND": "CCOc1c(C(=O)O)cnc2ccccc12", "growth inhibition (%)": -38.9}
{"COMPOUND": "CC(=O)OCC1OC(N2C(c3ccccc3)=CC(c3ccco3)C(C#N)=C2S)C(OC(C)=O)C(OC(C)=O)C1OC(C)=O (stereo unspecified)", "growth inhibition (%)": 12.7}
{"COMPOUND": "COC(=O)c1ccc(Cn2ccc(=O)n(Cc3ccc(C(=O)OC)cc3)c2=O)cc1", "growth inhibition (%)": 30.6}
{"COMPOUND": "OC(c1ccccc1)(C1CCNCC1)C1CC1 (stereo unspecified)", "growth inhibition (%)": -20.4}
{"COMPOUND": "COc1ccc(NC(=S)Nc2ccccc2)cc1", "growth inhibition (%)": -46.9}
{"COMPOUND": "Cc1cccc(C)c1NC(=S)/N=C/C1=C(O)c2ccccc2C1=O", "growth inhibition (%)": 13.8}
{"COMPOUND": "N=C(N=C(C(Cl)(Cl)Cl)C(Cl)(Cl)Cl)N=C(C(Cl)(Cl)Cl)C(Cl)(Cl)Cl", "growth inhibition (%)": -8.55}
{"COMPOUND": "C(=C/c1ccccc1)/CN1CCCCC1", "growth inhibition (%)": 11.4}
{"COMPOUND": "C=C(C)[C@H]1C[C@@H](O)[C@H]2O[C@@]2(C)C1", "growth inhibition (%)": -13.8}
{"COMPOUND": "CC(C)CC(NC(=O)C1CCCN1)C(=O)NC(CC(C)C)C(=O)OC(C)(C)C (stereo not drawn) (H-Pro-Leu-Leu-OtBu; configuration not given here)", "growth inhibition (%)": 19}
{"COMPOUND": "CCOC(=O)COc1cc(C)c2ccc(=O)oc2c1", "growth inhibition (%)": 8.45}
{"COMPOUND": "O=C(NNc1nc(N2CCOCC2)nc(N2CCOCC2)n1)c1ccccc1", "growth inhibition (%)": 15.3}
{"COMPOUND": "CCN(CC)CCOc1c(C)cccc1C", "growth inhibition (%)": -14.2}
{"COMPOUND": "COc1cccc(/C=C/c2cc3c(cc2Br)OCO3)c1", "growth inhibition (%)": 3.65}
{"COMPOUND": "CCCCCc1ccccc1OCC1CO1 (stereo unspecified)", "growth inhibition (%)": 11.6}
{"COMPOUND": "C/C(=N/NC(N)=S)c1ccc[nH]1", "growth inhibition (%)": 20.9}
{"COMPOUND": "Cc1ccc(S(=O)(=O)N=Nc2c(O)[nH]c3c(Cl)cc(Cl)cc23)cc1", "growth inhibition (%)": -1.2}
{"COMPOUND": "CC1(C)C=C(S(=O)(=O)c2ccccc2)Oc2ccccc2O1", "growth inhibition (%)": 9.2}
{"COMPOUND": "Cc1cc(C23OC4COC(C)(C)OC4C2OC(C)(C)O3)nc2ccccc12 (stereo unspecified)", "growth inhibition (%)": -22.1}
{"COMPOUND": "O=S(=O)(SC1=NCCN1)c1cccc2ccccc12", "growth inhibition (%)": 30}
{"COMPOUND": "N=N/C(=C\\c1c(O)[nH]c2ccccc12)c1ccccc1", "growth inhibition (%)": -35.2}
